Biological target: HIV-1 protease (Human immunodeficiency virus type 1 group M subtype B, UniProt P04585)
Construct: The protease (or proteinase), consisting of only 99 amino acids, is among the smallest enzymes known
Assay: In vitro HIV protease inhibitory assay (HIV Protease FITC Assay)
Format: biochemical
Conditions: HIV-1 Dose 30.000 uM; read-out: HIV-1 Protease % Inhib
Method: The HIV protease screening assay is based on a fluorescently labeled substrate which can be resolved from nonlabeled cleavage product using avidin-polystyrene particles, 0.7-0.9 µm. […] The labeled cleavage product is separated from the unreacted substrate via filtration and is read on the Idexx Screen Machine. The data are analyzed by appropriate computer algorithms to ascertain percent inhibition values.
Would you please tag the item class 1 when its inhibition at 30 µM is 90% or above, and class 0 when it is below?

[in] Is inhibition at 30 µM at least 90%? Consider CCCS(=O)(=O)Nc1cccc(C(c2c(O)cc(C(CC)Cc3ccccc3)oc2=O)C2CC2)c1 (centres unmarked)
[out] class 1

[in] Is it the case that CCC(CCC(F)(F)F)c1cc(O)c(C(c2ccccc2)C2CC2)c(=O)o1 (centres unmarked) has inhibition at 30 µM reaching or exceeding 90%?
[out] class 1

[in] Determine whether measured inhibition at 30 µM meets or exceeds 90% for CC(C)Cc1cc(O)c(C(c2ccccc2)C2CC2)c(=O)o1 (centres unmarked)
[out] class 1

[in] Hello, I need to know if CCCC1(CCCc2ccccc2)CC(O)=C(C(c2ccccc2)c2ccccc2)C(=O)O1 (centres unmarked) has measured inhibition at 30 µM not below 90%. Thanks!
[out] class 1

[in] Item CCC(Cc1ccccc1)c1cc(O)c(C(c2cccc(NS(=O)(=O)c3ccc(C#N)cc3)c2)C2CC2)c(=O)o1 (centres unmarked) with inhibition at 30 µM of 90% or above?
[out] class 1

[in] Kindly determine if inhibition at 30 µM recorded for CCC(CC1CCCOC1)c1cc(O)c(C(CC)c2ccccc2)c(=O)o1 (centres unmarked) is above or exactly 90%.
[out] class 1

[in] Does "O=c1oc(C(CC2CC2)CC2CC2)cc(O)c1C(Cc1ccccc1)Cc1ccccc1" have a reported inhibition at 30 µM of at least 90%?
[out] class 1

[in] Please tell me: is the compound CCC(Cc1ccc(F)cc1)c1cc(O)c(C(c2ccccc2)C2CC2)c(=O)o1 (centres unmarked) at or over 90% in terms of inhibition at 30 µM?
[out] class 1

[in] Could you verify whether the entry CCC(Cc1ccccc1)c1cc(O)c(C(c2cccc(NS(=O)(=O)c3ccccc3)c2)C2CC2)c(=O)o1 (centres unmarked) shows inhibition at 30 µM of no less than 90%?
[out] class 1

[in] State whether the measured inhibition at 30 µM reaches 90%, counting equality as reaching it, for CCC(Cc1ccccc1)c1cc(O)c(C(c2cccc(NC(=O)Nc3ccc(Br)cc3)c2)C2CC2)c(=O)o1 (centres unmarked)
[out] class 0

[in] Is inhibition at 30 µM for CCC(CC(=O)N1CCOCC1)c1cc(O)c(C(c2ccccc2)C2CC2)c(=O)o1 (centres unmarked) at or above 90%?
[out] class 1

[in] Does CCC(CCCN1CCOCC1)c1cc(O)c(C(c2ccccc2)C2CC2)c(=O)o1 (centres unmarked) have a reported inhibition at 30 µM of at least 90%?
[out] class 0

[in] Entry CCC(c1ccccc1)c1cc(O)c(C(CC)c2ccccc2)c(=O)o1 (centres unmarked) : is its inhibition at 30 µM no less than 90%?
[out] class 0

[in] Check if inhibition at 30 µM >= 90% (inclusive). Item: CCC(CC(=O)OCc1ccccc1)c1cc(O)c(C(c2ccccc2)C2CC2)c(=O)o1 (centres unmarked)
[out] class 1

[in] Evaluate CCC(CCC1OCCCO1)c1cc(O)c(C(c2ccccc2)C2CC2)c(=O)o1 (centres unmarked) : inhibition at 30 µM at minimum 90%?
[out] class 1

[in] Entry O=C(CCn1ccc2ccccc21)Nc1cccc(C(c2c(O)cc(C(CC3CC3)CC3CC3)oc2=O)C2CC2)c1 (centres unmarked) : is its inhibition at 30 µM no less than 90%?
[out] class 1

* * *

Target: HIV-1 protease (Human immunodeficiency virus type 1 group M subtype B, UniProt P04585)
Construct: The protease (or proteinase), consisting of only 99 amino acids, is among the smallest enzymes known
Test: In vitro HIV protease inhibitory assay (HIV Protease FITC Assay)
Assay type: biochemical
Settings: HIV-1 Dose 33.000 uM; read-out: HIV-1 Protease % Inhib
measured.property: inhibition at 33 µM (%)
Numbers only here, please. The scale is %.

[in] # lookup: inhibition at 33 µM of CCC(Cc1ccccn1)c1cc(O)c(C(c2ccccc2)C2CC2)c(=O)o1 (stereo not drawn) [Example 63]
[out] 112

[in] Which measured inhibition at 33 µM value corresponds to CCC(Cc1ccco1)c1cc(O)c(C(c2ccccc2)C2CC2)c(=O)o1 (stereo not drawn) [Example 59] ?
[out] 101

[in] Which inhibition at 33 µM value belongs to CCC(CC1OCCO1)c1cc(O)c(C(c2ccccc2)C2CC2)c(=O)o1 (stereo not drawn) [Example 60] ?
[out] 111

[in] Query: inhibition at 33 µM; subject: CCC(C1=C(O)CC2(CCC3(CC2)OCCO3)OC1=O)c1ccccc1 (stereo not drawn) [Example 114]
[out] 67.5

[in] Fill blank: measured inhibition at 33 µM of the compound CCC(c1ccccc1)c1c(O)c(Br)c(C(CC2CC2)CC2CC2)oc1=O (stereo not drawn) [Example 77] is ____.
[out] 108

[in] Tell me the measured inhibition at 33 µM of CCC(Cc1cccs1)c1cc(O)c(C(c2ccccc2)C2CC2)c(=O)o1 (stereo not drawn) [Example 57] , please.
[out] 114

[in] Can you share its inhibition at 33 µM? I mean this compound: CCC(c1ccccc1)c1c(O)c(Br)c(CCc2ccccc2)oc1=O (stereo not drawn) [Example 105]
[out] 110

[in] Look at this compound and give its reported inhibition at 33 µM. O=c1oc(CCc2ccc3ccccc3n2)cc(O)c1C(c1ccccc1)C1CC1 (stereo not drawn) [Example 51]
[out] 70

[in] What does the record list as inhibition at 33 µM for O=c1oc(C(Cc2ccccc2)Cc2ccccn2)cc(O)c1C(c1ccccc1)C1CC1 (stereo not drawn) [Example 46] ?
[out] 103

* * *

Target: HIV-1 protease (Human immunodeficiency virus type 1 group M subtype B)
Construct: The protease (or proteinase), consisting of only 99 amino acids, is among the smallest enzymes known
Assay: In vitro HIV protease inhibitory assay (HIV Protease FITC Assay)
Format: biochemical
Details: HIV-1 Dose 1.100 uM; read-out: HIV-1 Protease % Inhib
measured.property: inhibition at 1.1 µM (%)
The figure you give is taken to be in %; do not add the unit.

[in] Reported inhibition at 1.1 µM, molecule CCC(CC1CC(=O)N(Cc2ccccc2)C1)c1cc(O)c(C(c2ccccc2)C2CC2)c(=O)o1 (stereo not shown) : ____
[out] 26.9

[in] I am curious: what inhibition at 1.1 µM value has been reported for CCC(Cc1ccccc1)c1cc(O)c(C(c2cccc(NS(=O)(=O)c3ccc(Br)cc3)c2)C2CC2)c(=O)o1 (stereo not shown) ?
[out] 82.4

[in] Would you kindly share the measured inhibition at 1.1 µM for CCC(Cc1ccc(C(F)(F)F)cc1)c1cc(O)c(C(c2ccccc2)C2CC2)c(=O)o1 (stereo not shown) ?
[out] 39.4

[in] Given the molecule CCC(Cc1ccc(F)cc1)c1cc(O)c(C(c2ccccc2)C2CC2)c(=O)o1 (stereo not shown) , what is its reported inhibition at 1.1 µM?
[out] 84.1

[in] State the recorded inhibition at 1.1 µM for this entry: CCC(CC1=CCCOC1)c1cc(O)c(C(c2ccccc2)C2CC2)c(=O)o1 (stereo not shown)
[out] 82.4

[in] Reported inhibition at 1.1 µM, molecule CCC(Cc1ccccc1)c1cc(O)c(C(c2cccc(NC(=O)Cc3cccnc3)c2)C2CC2)c(=O)o1 (stereo not shown) : ____
[out] 63.7

[in] # inhibition at 1.1 µM lookup, item O=c1oc(CC(O)c2ccsc2)cc(O)c1C(c1ccccc1)C1CC1 (stereo not shown)
[out] 40.3

[in] Give the measured inhibition at 1.1 µM of CCC(Cc1ccccc1)c1cc(O)c(C(c2cccc(NS(=O)(=O)c3cccc4cccnc34)c2)C2CC2)c(=O)o1 (stereo not shown) .
[out] 106

[in] Fill in: inhibition at 1.1 µM of CCC(CC1CCCN1S(=O)(=O)c1ccc(C)cc1)c1cc(O)c(C(c2ccccc2)C2CC2)c(=O)o1 (stereo not shown) is ___
[out] 24.8

[in] Request the reported inhibition at 1.1 µM associated with CCC(CC(=O)N1CCOCC1)c1cc(O)c(C(c2ccccc2)C2CC2)c(=O)o1 (stereo not shown)
[out] 13.9

[in] Could you tell me which inhibition at 1.1 µM is on file for CCC(CC1CCCCN1S(=O)(=O)c1ccc(C)cc1)c1cc(O)c(C(c2ccccc2)C2CC2)c(=O)o1 (stereo not shown) ?
[out] 38.6
